# Target Desc: T1, NHERF3_4, Q5T2W1
# T1 sequence (Q5T2W1 373-468, limits assumed, looked up): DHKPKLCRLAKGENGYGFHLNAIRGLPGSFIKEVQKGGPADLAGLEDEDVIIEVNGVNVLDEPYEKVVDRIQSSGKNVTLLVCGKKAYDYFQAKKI
# Experiment Summary: holdup assay
# Design: key: below the threshold = too weak to quantify, mostly under pKd 3.1 to 4
# Measurement Setup: plain residues with an end cap or a label only (N-terminal biotin on a linker: ado-ado)

[
  {
    "Binder": "QLSFNTDTLC [ABCA2, Q9BZC7]",
    "pKd": "below the threshold"
  },
  {
    "Binder": "TISFTQTSQF [SLC1A1, P43005]",
    "pKd": 4.41
  },
  {
    "Binder": "VKRNSKETVV [MARCHF3, Q86UD3]",
    "pKd": "below the threshold"
  },
  {
    "Binder": "EIPAQSPTCV [FZD10, Q9ULW2]",
    "pKd": "below the threshold"
  },
  {
    "Binder": "LAHVKHKEQI [AQP3, Q92482]",
    "pKd": "below the threshold"
  },
  {
    "Binder": "LPAVCYDIDI [PTTG2, Q9NZH5]",
    "pKd": "below the threshold"
  },
  {
    "Binder": "ILRKSTTTTV [PRR16, Q569H4]",
    "pKd": "below the threshold"
  },
  {
    "Binder": "RSSGGDDFWF [KCNV1, Q6PIU1]",
    "pKd": "below the threshold"
  },
  {
    "Binder": "NVYGIESVKI [GRIA2, P42262]",
    "pKd": 3.75
  },
  {
    "Binder": "SFISKKEWYV [NECTIN1, Q15223]",
    "pKd": "below the threshold"
  },
  {
    "Binder": "AEASVACSLC [PTGIR, P43119]",
    "pKd": "below the threshold"
  },
  {
    "Binder": "PYSESDDDWC [CACNA1A, O00555]",
    "pKd": "below the threshold"
  },
  {
    "Binder": "DDASLPVSDV [PLEKHA1, Q9HB21]",
    "pKd": "below the threshold"
  },
  {
    "Binder": "ELSATVTTDC [TRIP6, Q15654]",
    "pKd": "below the threshold"
  },
  {
    "Binder": "LESTTVGTSV [KARS1, Q15046]",
    "pKd": "below the threshold"
  },
  {
    "Binder": "LKDDELKTKL [SLCO1A2, P46721]",
    "pKd": 4.91
  },
  {
    "Binder": "STKRKLASAV [NCF1, P14598]",
    "pKd": "below the threshold"
  }
]
